Source listed as ChEMBL document CHEMBL4811273.

# assay.remarks: Mean residence time in rat at 1 mg/kg, po administered as cassette dose by LC/MS/MS analysis
# Assay type: ADME, organism-based
# settings: in vivo
quantity.kind: MRT

Task item: Provide MRT value for the following molecule: CC(C)(F)c1noc(N2CCC(N(c3cc(OC4CCN(S(C)(=O)=O)CC4)ncn3)C(F)(F)F)CC2)n1
Reply: 4.05 h

---

# assay.remarks: Hepatic clearance in rat liver microsomes measured up to 30 mins by LC/MS/MS analysis
# Assay type: ADME, Microsome
# settings: read-out: CLH
quantity.kind: microsomal CLint (µL/min/mg)
Just the number please, in µL/min/mg, no unit attached.

{"entry.smiles": "CS(=O)(=O)N1CCC(Oc2cc(N(C3CCN(c4nc(C5CC5)no4)CC3)C(F)(F)F)ncn2)CC1", "microsomal CLint (µL/min/mg)": 13}

We now examine a further compound.
Task item: Supply microsomal CLint value. Item: CC(C)c1noc(N2CCC(N(c3cc(OC4CCN(S(C)(=O)=O)CC4)ncn3)C(F)(F)F)CC2)n1
Reply: 36
